Values compiled from PubChem BioAssay (NCI).

System: SK-MEL-5 melanoma
experimental details: NCI tumour cell line growth inhibition, 48 h; in the data active = GI50 below about 0.43 µM; inactive = the rest
Answer with one of the outcomes active, inactive

# count of solved cases: 5
COc1ccc(C(C)c2cc(OC)c(OC)c(OC)c2)cc1 (centres undefined) = active
Cc1cc(-c2nnc(/C=C/c3ccc4c(c3)OCO4)o2)n[nH]1 = inactive
CC1=C(/C=C/C(=O)CC(=O)/C=C/C2=C(C)CCCC2(C)C)C(C)(C)CCC1 = inactive
Clc1ccc(C2CC(c3cccc(Nc4ccncc4)c3)=NN2c2ccc(Cl)cc2)cc1 (centres undefined) = inactive
Nc1c(C(=O)Nc2ccccn2)sc2nc3c(cc12)C(O)CCC3 (centres undefined) = inactive

[Q] Which outcome did this test record for the molecule "CC(C)(C)c1cc(C(=O)Nc2ccc(C(=O)NCCN)cc2)cc(C(C)(C)C)c1" ?
[A] inactive

[Q] Which outcome did this test record for the molecule "CC(=O)Oc1ccc2c(c1)[C@@]1(C)CCCC(C)(C)[C@@H]1CC2" ?
[A] inactive

[Q] Which outcome did this test record for the molecule "C=C1c2ccccc2C(=O)c2c1c1c(C(=O)OC)c(OC(=O)OCc3ccc([N+](=O)[O-])cc3)ccc1n2Cc1ccccc1" ?
[A] inactive
